target-entity: T1, prostate specific antigen (PSA) (human, UniProt P07288 25-261, limits assumed)
T1 construct: The antigen of the SPR study is only called 'PSA' (169 ug/ml, provided by Diaprost AB, Mw 30 000 Da); also called kallikrein III
T1 sequence (P07288 25-261 limits assumed): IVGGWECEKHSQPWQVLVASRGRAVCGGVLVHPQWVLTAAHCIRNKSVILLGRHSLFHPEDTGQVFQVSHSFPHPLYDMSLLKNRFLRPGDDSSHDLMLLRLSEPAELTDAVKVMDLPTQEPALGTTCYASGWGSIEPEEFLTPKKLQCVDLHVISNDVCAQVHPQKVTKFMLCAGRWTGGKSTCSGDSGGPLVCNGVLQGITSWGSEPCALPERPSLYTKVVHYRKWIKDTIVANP
protocol-notes: SPR (Biacore 3000), PSA amine-coupled on CM4 chip, antibody in solution
readout: kon (M⁻¹ s⁻¹)
Answer with a number only, understood to be in M⁻¹ s⁻¹.

In plain terms, h5A10-DFO (antibody, human IgG1, kappa, V domains shown, DFO (deferoxamine) chelator conjugated to the antibody; sites and chain not stated, Humanised 5A10 IgG1/kappa conjugated with the chelator DFO; also called h5A10-DFO (141203)) VH: QVTLKESGPALVKPTQTLTLTCTFSGFSLSTTGMGVSWIRQPPGKALEWLAHIYWDDDKRYSTSLKTRLTISEDSSKNQVVLTMTNMDPVDTATYYCARKGYYGYFDYWGQGTLVTVSS VL: DIQMTQSPSSLSASVGDRVTVTCRASQNVNTDVAWYQQKPGKAPKALIFSTSYLQSGVPSRFSGSGSGTDFTLTISSLQPEDFATYYCQQYSNYPLTFGQGTKVEIKR has a documented kon of 170000
